Measured values drawn from the supplement of paper PMC9233669 for this set.

# Test system: biotinyl-Val-oxazolone
# assay procedure: self-aminoacylation, catalytic enhancement (BVO) (fold over background); higher = more active; k-Seq, kA / k0A0; sequences stand for … in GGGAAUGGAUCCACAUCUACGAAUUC…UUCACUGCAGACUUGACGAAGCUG
Fewer inactive variants are shown than the library holds.
Binned self-aminoacylation; ranges: Low: < 2; Mid: ≥ 2 and < 3; High: ≥ 3

Previously resolved entries follow.
Req: Class for AUACACCUAGGUCAGCGGGUG [Fam2.2 aminoacylation ribozyme variant] ?
Resp: Mid

Req: Next entry: GUUACCCUGGUCAUCGAGUUA [Fam2.1 aminoacylation ribozyme variant]
Resp: High

Continuing:
Req: Class for AUUAGCCUGGUCAUCGAGUGU [Fam2.1 aminoacylation ribozyme variant] ?
Resp: High

Req: Next entry: CCACACAUCAAGCAAUCGAUC [Fam1B.1 aminoacylation ribozyme variant]
Resp: Low

Req: Next entry: AUUCACCAAGGCCAUCGGGUG [Fam2.2 aminoacylation ribozyme variant]
Resp: High

Req: Next entry: AUUCACAUAGAUCAUCGGGUG [Fam2.2 aminoacylation ribozyme variant]
Resp: Mid

Req: Next entry: AAGUUUGCUAAUAGUCGCUCG [Fam3.1 aminoacylation ribozyme variant]
Resp: Low

Req: Next entry: AUUACCCUGGUCAUUGCGUGA [Fam2.1 aminoacylation ribozyme variant]
Resp: High

Req: Next entry: CUUACCCGGGUCAUCGAGUGA [Fam2.1 aminoacylation ribozyme variant]
Resp: High

====

# Test system: biotinyl-Phe-oxazolone
# assay procedure: self-aminoacylation, catalytic enhancement (BFO) (fold over background); higher = more active; k-Seq, kA / k0A0; sequences stand for … in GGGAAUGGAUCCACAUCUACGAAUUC…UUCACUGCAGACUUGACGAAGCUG
Fewer inactive variants are shown than the library holds.
Outcome label depends on self-aminoacylation relative to 3: at/above gives 1 (yes), below gives 0 (no).

Previously resolved entries follow.
Req: Entry AUUCACCUAGGCCAUCGGGUA [Fam2.2 aminoacylation ribozyme variant] : is its self-aminoacylation no less than 3?
Resp: 1 (yes)

Req: Next entry: AUUGACCUAGGGCAUCGGGUG [Fam2.2 aminoacylation ribozyme variant]
Resp: 1 (yes)

Req: Next entry: AUUCCCAUAGGUCAUCGGGUG [Fam2.2 aminoacylation ribozyme variant]
Resp: 1 (yes)

Req: Next entry: CUACUUCAAAGAACCGGUCUG [Fam1A.1 aminoacylation ribozyme variant]
Resp: 0 (no)

Req: Next entry: CUACUUUAACCAAUCGGUCUG [Fam1A.1 aminoacylation ribozyme variant]
Resp: 0 (no)

Req: Next entry: CCACACUUCAAGAAAGCGGUC [Fam1B.1 aminoacylation ribozyme variant]
Resp: 0 (no)

Req: Next entry: CCACACUUCACGCAAUCGAUC [Fam1B.1 aminoacylation ribozyme variant]
Resp: 0 (no)

Req: Next entry: GCACUCUUCAAGCAAUCGGUC [Fam1B.1 aminoacylation ribozyme variant]
Resp: 1 (yes)

Req: Next entry: ACGUUUACUAAUAGUCGCAAG [Fam3.1 aminoacylation ribozyme variant]
Resp: 0 (no)

Req: Next entry: AAGUGUGCUAAUAGUCGCCAG [Fam3.1 aminoacylation ribozyme variant]
Resp: 0 (no)

Continuing:
Req: Entry ACACACUUCAAGCAAUUGGUC [Fam1B.1 aminoacylation ribozyme variant] : is its self-aminoacylation no less than 3?
Resp: 0 (no)

Req: Next entry: CUACGUCAAACGAUCGGUCUG [Fam1A.1 aminoacylation ribozyme variant]
Resp: 1 (yes)

Req: Next entry: AAGUUUGAUACUAGUCGCAAG [Fam3.1 aminoacylation ribozyme variant]
Resp: 0 (no)

Req: Next entry: AUUACCCUGCUCAUUGAGUGA [Fam2.1 aminoacylation ribozyme variant]
Resp: 1 (yes)

Req: Next entry: AUUACUCCGGUCAUCGAGUGA [Fam2.1 aminoacylation ribozyme variant]
Resp: 1 (yes)

Req: Next entry: AUUCACCUAGGGCAUCCGGUG [Fam2.2 aminoacylation ribozyme variant]
Resp: 1 (yes)

Req: Next entry: AAGUUUGCUAUUAGUCGUAAG [Fam3.1 aminoacylation ribozyme variant]
Resp: 0 (no)

Req: Next entry: CUACUUCAAACAAUCGGCCUA [Fam1A.1 aminoacylation ribozyme variant]
Resp: 0 (no)
